Target: T1, UNK ZnF1-3 (human, UniProt Q9C0B0 31-174)
T1 sequence: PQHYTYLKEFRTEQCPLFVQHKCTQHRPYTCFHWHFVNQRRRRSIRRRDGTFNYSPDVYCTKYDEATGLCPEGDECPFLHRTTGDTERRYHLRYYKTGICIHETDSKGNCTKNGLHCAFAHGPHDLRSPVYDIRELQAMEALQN
Test: nsRBNS (natural sequence RNA bind-n-seq); RBNS binding buffer (assumed for nsRBNS): 25 mM Tris pH 7.5, 150 mM KCl, 3 mM MgCl2, 0.01% Triton X-100, 500 ug/ml BSA, 20 U/ml SUPERase-In, 4 C; UNK is unkempt and MSI1 is Musashi-1; names of the RNAs are library labels; protein concentration not given here; high values mean tight binding
In all, about 24,000 sequences were measured (“enrichment r”: median about 0.99, highest 2% from about 3.7 on). The list is a sample of the results.
The following binders are listed with their measured binding signal values.
Your answer should be a plain number; it is taken to be in enrichment R.

Solved entries:
binder	value-unit	binding signal
chr14:78183846:78183847:+_ENSG00000119705_ENST00000557342|hu_hu|hu_hu_hu_mus_False|18_108 (ssRNA) RNA: GGGAGUUCUACAGUCCGACGAUCUCUGUCUCAAAAAUCUUCAUCAGAUGUUUGAGCUCCGUGCAAAGCCUUUGCUCUUUGAGCUUGAACGUGGAUCUAUGGGAGGGAAAGCACUGUAUUUUCCUGUAAUUUUUUUUUUAAAGACAACAGAGGAUUGAGCAUCA	enrichment R	1.24
chr6:117881578:117881579:-_ENSG00000047932_ENST00000052569|hu_hu|motif|central (ssRNA) RNA: GGGAGUUCUACAGUCCGACGAUCUUUAAUGUAGAAGAUGCCAUCUUUAUUUACAGGCUAAUAAAAAAAUAUUAAACUCAACGGGAUAUAAUACAUUAUCAUAAAUGCAAUAGAUUUGAGGCCAACCAUAAGUGUAAGACUGGACAACAGAGGAUUGAGCAUCA	enrichment R	1.5

Attention now shifts to the item below.
response.value for chr4:17845017:17845018:+_ENSG00000109805_ENST00000514176|hu_mus|hu_hu_hu_mus_False|1_58 (ssRNA) RNA: GGGAGUUCUACAGUCCGACGAUCGCUCUCUUAACUUGUAUCUUCAUUAAGGAACUCUGCAAGGUUAAGUUUACUUUUUCUAGUGCUAGCUGUUUUGGCUCGUCUGGGUAAUCUCAUCUUCAUUUCUGAUGGUGGUUUGGAACUCAACAGAGGAUUGAGCAUCA (field: binding signal) = 0.331
